- assay.procedure: Growth inhibition of human prostate cancer cell after 48 hrs by sulforhodamine B assay
- Format: functional
- test.conditions: Cancer cell lines
Mark YES for GI50 under 6 µM, NO if at or over.

- CCC(NC(=O)Nc1cc(Cl)ccc1Cl)(C(F)(F)F)C(F)(F)F: YES
- CC(NC(=O)Nc1nc2ccccc2s1)(C(F)(F)F)C(F)(F)F: NO
- CC(NC(=O)Nc1cc(Cl)ccc1Cl)(C(F)(F)F)C(F)(F)F: YES
- CCC(NC(=O)Nc1nc2ccccc2s1)(C(F)(F)F)C(F)(F)F: NO
- O=c1[nH]cc(F)c(=O)[nH]1: YES

###

- Test system: NCI/ADR-RES
- assay.procedure: Growth inhibition of human NCI/ADR-RES cells after 48 hrs by sulforhodamine B assay
- Format: functional
The reader will find reported GI50 values listed item by item below.
measurement.kind: GI50

* CC(NC(=O)Nc1nc2ccccc2s1)(C(F)(F)F)C(F)(F)F | > 100 µM
* O=c1[nH]cc(F)c(=O)[nH]1 | 0.316 µM
* CCC(NC(=O)Nc1cc(Cl)ccc1Cl)(C(F)(F)F)C(F)(F)F | 4.17 µM
* CC(NC(=O)Nc1cc(Cl)ccc1Cl)(C(F)(F)F)C(F)(F)F | 5.89 µM

###

- assay.procedure: Growth inhibition of human renal cancer cell after 48 hrs by sulforhodamine B assay
- Assay type: functional
- test.conditions: Cancer cell lines
measurement.kind: GI50

- O=c1[nH]cc(F)c(=O)[nH]1 [FLUOROURACIL]: 0.575 µM
- CCC(NC(=O)Nc1cc(Cl)ccc1Cl)(C(F)(F)F)C(F)(F)F: 3.89 µM
- CC(NC(=O)Nc1nc2ccccc2s1)(C(F)(F)F)C(F)(F)F: 28.2 µM
- CCC(NC(=O)Nc1nc2ccccc2s1)(C(F)(F)F)C(F)(F)F: 15.1 µM
- CC(NC(=O)Nc1cc(Cl)ccc1Cl)(C(F)(F)F)C(F)(F)F: 15.1 µM

###

- Test system: MCF7
- assay.procedure: Growth inhibition of human MCF7 cells assessed as cell growth at 100 uM after 48 hrs by sulforhodamine B assay relative to control
- Format: functional
- test.conditions: MCF7, 48 h, read-out: Activity
Mark met for growth at 100 µM under 80%, not met if at or over.

• CCC(NC(=O)Nc1cc(Cl)ccc1Cl)(C(F)(F)F)C(F)(F)F = met
• CCC(NC(=O)Nc1c(Cl)cccc1Cl)(C(F)(F)F)C(F)(F)F = met
• CC(NC(=O)Nc1nnc[nH]1)(C(F)(F)F)C(F)(F)F = not met
• CC(NC(=O)Nc1c(Cl)cc(Cl)cc1Cl)(C(F)(F)F)C(F)(F)F = not met
• CCC(NC(=O)Nc1c(Cl)cc(Cl)cc1Cl)(C(F)(F)F)C(F)(F)F = not met
• CC(NC(=O)Nc1cc(Cl)ccc1Cl)(C(F)(F)F)C(F)(F)F = met
• CCC(NC(=O)Nn1cnnc1)(C(F)(F)F)C(F)(F)F = not met
• CCC(NC(=O)Nc1nnc[nH]1)(C(F)(F)F)C(F)(F)F = not met

###

- assay.procedure: Growth inhibition of human CNS cancer cell after 48 hrs by sulforhodamine B assay
- Assay type: functional
- test.conditions: Cancer cell lines
measurement.kind: GI50 (µM)

• CCC(NC(=O)Nc1nc2ccccc2s1)(C(F)(F)F)C(F)(F)F = 11.7
• O=c1[nH]cc(F)c(=O)[nH]1 = 1.35
• CCC(NC(=O)Nc1cc(Cl)ccc1Cl)(C(F)(F)F)C(F)(F)F = 4.47
• CC(NC(=O)Nc1nc2ccccc2s1)(C(F)(F)F)C(F)(F)F = 25.7
• CC(NC(=O)Nc1cc(Cl)ccc1Cl)(C(F)(F)F)C(F)(F)F = 20
